experiment: Human HepG2 cell viability assay in 384 well format; assay type: toxicity, cell-based; design: dose 125 nL, time 70.5 hour; concentration not given beside the values; conditions: HepG2 cells, read-out: Inhibition
Measured Endpoint: cytotoxicity at 70.5 h (%)
Only the number, expressed in %, is required.

Solved cases below.
Compound: Cc1ccccc1CNC(Cn1cncn1)c1ccccc1 (configuration not stated)
cytotoxicity at 70.5 h / %: 1.75
--
Compound: CN(CC1CC1)c1ccc2ccc(C(=O)NC3CCCCC3)cn12
cytotoxicity at 70.5 h / %: 12.9
--
Compound: c1cc(CN2CCc3ncc(CN4CCCCC4)n3CC2)cs1
cytotoxicity at 70.5 h / %: 19.1

In: Please look up its cytotoxicity at 70.5 h: Cc1nc(-c2nnc[nH]2)sc1C(=O)N1CCCC1c1cccs1 (configuration not stated)
Out: -6.5

In: Look up cytotoxicity at 70.5 h for this compound: CCOC(=O)[C@]12CCCN(Cc3nccs3)C[C@H]1CN(C(C)=O)C2
Out: -13.3

In: Give its cytotoxicity at 70.5 h value. Item: CCOC(=O)CC(C)NC(=O)c1cn(Cc2ccccc2F)nn1 (configuration not stated)
Out: -1.02

In: Which cytotoxicity at 70.5 h is listed for Cc1cnn(CCNCC(O)c2ccc(S(C)(=O)=O)cc2)c1 (configuration not stated) ?
Out: -11.8

In: # lookup: cytotoxicity at 70.5 h of COCCN(C)CCN1CC2(CCN(C3CCOC3)CC2)OC1=O (configuration not stated)
Out: -0.423

In: # query: cytotoxicity at 70.5 h of entry Cc1noc(C)c1S(=O)(=O)N1CCC(n2cccn2)CC1
Out: -5.3

In: Would you mind telling me what cytotoxicity at 70.5 h value was observed for COCc1nc2n(n1)CCCC2Nc1nc(C(C)C)ns1 (configuration not stated) ?
Out: -6.22

In: What value of measured cytotoxicity at 70.5 h is listed for CCN(CC)Cc1ccc(C(=O)NC2CCc3cc(F)ccc32)o1 (configuration not stated) ?
Out: -19

In: Tell me the measured cytotoxicity at 70.5 h of COCCn1/c(=N\C(=O)CN(C)S(C)(=O)=O)sc2cc(Cl)ccc21 , please.
Out: 17

These data points were gathered from ChEMBL document CHEMBL3507680.
